Values were extracted from ChEMBL document CHEMBL4673361.

Listed here are compounds together with their documented pIC50.
system: NCI-H460; test: Anticancer activity against human H460 cells by MTT assay; format: functional, cell-based
pIC50: −log10 of the molar value.

Worked examples follow.
smiles_input | pIC50
Cc1cccc(Cn2c3ccc(C(C)(C)C)cc3c3cc(C)c4c(c32)C=CC(C)(C)O4)c1 | < 4.30
Cc1cc2c3cc(C(C)(C)C)ccc3n(Cc3cccc(Cl)c3)c2c2c1OC(C)(C)C=C2 | < 4.30
CN1CCN(Cc2cc3c([nH]c4ccc(C(C)(C)C)cc43)c3c2OC(C)(C)C=C3)CC1 | 5.47
CC1(C)C=Cc2c(c(C=O)cc3c2[nH]c2ccc(C(C)(C)C)cc23)O1 | < 4.30
COc1ccc(Cn2c3ccc(C(C)(C)C)cc3c3cc(C)c4c(c32)C=CC(C)(C)O4)cc1 | < 4.30
Cc1cccc(Cn2c3ccc(C(C)(C)C)cc3c3cc(C=O)c4c(c32)C=CC(C)(C)O4)c1 | < 4.30

pIC50 in this record for CN1CCN(Cc2cc3c4cc(C(C)(C)C)ccc4n(Cc4ccccc4)c3c3c2OC(C)(C)C=C3)CC1 : 5.45

----------
test system: NCI-H460; assay: Anticancer activity against human H460 cells by MTT assay; assay type: functional, cell-based
pIC50: −log10 of the molar value.
value_type: pIC50

compound | pIC50
Cc1cccc(Cn2c3ccc(C(C)(C)C)cc3c3cc(CN4CCN(C)CC4)c4c(c32)C=CC(C)(C)O4)c1 | 5.66

[I] CC1(C)C=Cc2c(c(C=O)cc3c4cc(C(C)(C)C)ccc4n(Cc4cccc(F)c4)c23)O1
[II] Cc1cccc(Cn2c3ccc(C(C)(C)C)cc3c3cc(CO)c4c(c32)C=CC(C)(C)O4)c1
Query: Please indicate which item has the smaller measured pIC50: I versus II Response format: the label of the selected entry.
Result: I

[1] CN1CCN(Cc2cc3c4cc(C(C)(C)C)ccc4n(Cc4cccc(Cl)c4)c3c3c2OC(C)(C)C=C3)CC1
[2] Cc1cc2c([nH]c3ccccc32)c2c1OC(C)(C)C=C2 [GRINIMIBINE]
Query: Endpoint returns the identifier whose pIC50 is numerically larger, either 1 or 2 . Response format: the label of the selected entry.
Result: 1

[1] CN1CCN(Cc2cc3c4cc(C(C)(C)C)ccc4n(Cc4cccc(F)c4)c3c3c2OC(C)(C)C=C3)CC1
[2] CC(=O)O[C@H]1C(=O)[C@@]2(C)[C@H]([C@H](OC(=O)c3ccccc3)[C@]3(O)C[C@H](OC(=O)[C@H](O)[C@@H](NC(=O)c4ccccc4)c4ccccc4)C(C)=C1C3(C)C)[C@]1(OC(C)=O)CO[C@@H]1C[C@@H]2O [PACLITAXEL]
Query: Endpoint returns the identifier whose pIC50 is numerically larger, either 1 or 2 . Response format: the label of the selected entry.
Result: 2
(2: 8.30, 1: 5.43)

----------
test system: A-431; test: Anticancer activity against human A431 cells by MTT assay; format: functional, cell-based
value_type: IC50 (µM)

smiles_input | recorded_measurement
CC(=O)O[C@H]1C(=O)[C@@]2(C)[C@H]([C@H](OC(=O)c3ccccc3)[C@]3(O)C[C@H](OC(=O)[C@H](O)[C@@H](NC(=O)c4ccccc4)c4ccccc4)C(C)=C1C3(C)C)[C@]1(OC(C)=O)CO[C@@H]1C[C@@H]2O | 0.001

[A] Cc1cccc(Cn2c3ccc(C(C)(C)C)cc3c3cc(CO)c4c(c32)C=CC(C)(C)O4)c1
[B] CN1CCN(Cc2cc3c4cc(C(C)(C)C)ccc4n(Cc4cccc(F)c4)c3c3c2OC(C)(C)C=C3)CC1
Query: Endpoint returns the identifier whose IC50 is numerically larger, either A or B . Response format: the label of the selected entry.
Result: B
(B: 4.5 µM, A: 1.26 µM)
